Measured EC50, listed per entry.
- target-desc: T1, soluble IL6-R in cynomolgus plasma (cynomolgus monkey, UniProt A0A2K5WN54 60-386)
- T1 chain: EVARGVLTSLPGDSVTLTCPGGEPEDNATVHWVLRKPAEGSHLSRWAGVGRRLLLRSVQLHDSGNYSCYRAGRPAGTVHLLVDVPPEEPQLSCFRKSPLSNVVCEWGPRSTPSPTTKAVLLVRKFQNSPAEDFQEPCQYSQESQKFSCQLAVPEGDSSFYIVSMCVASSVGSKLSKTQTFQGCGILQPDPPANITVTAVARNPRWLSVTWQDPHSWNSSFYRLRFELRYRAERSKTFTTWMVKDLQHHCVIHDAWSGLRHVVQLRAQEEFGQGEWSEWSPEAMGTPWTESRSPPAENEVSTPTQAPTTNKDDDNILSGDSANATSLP
- protocol: ELISA inhibition of IL-6 binding to plasma sIL6R; cyno plasma, 50 ng/mL IL-6
Returns: string containing the number followed by the unit.

Example binders with recorded EC50:
| binder | reported |
| --- | --- |
| IL6R04 (VHH) VHH: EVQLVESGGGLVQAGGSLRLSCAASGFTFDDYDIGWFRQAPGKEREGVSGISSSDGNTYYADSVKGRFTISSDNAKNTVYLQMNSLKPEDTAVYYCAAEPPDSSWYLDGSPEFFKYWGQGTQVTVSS | 36.9 nM |
| IL6R88 (VHH) VHH: EVQLVESGGGLVQPGGSLRLSCAASGFTFDDYGMSWVRQAPGKGTEWVSAISWNGNNTYYTESMKGRFTISRDNAKNTLYLQMNSLRPEDTAVYYCVKGSTAIVGVPPTYPDEYDYWGQGTLVTVSS | 23.3 nM |
| IL6R03 (VHH) VHH: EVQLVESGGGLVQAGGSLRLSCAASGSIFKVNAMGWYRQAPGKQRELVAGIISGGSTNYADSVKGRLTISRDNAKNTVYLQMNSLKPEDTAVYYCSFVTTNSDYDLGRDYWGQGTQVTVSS | 5.88 nM |
| IL6R13 (VHH) VHH: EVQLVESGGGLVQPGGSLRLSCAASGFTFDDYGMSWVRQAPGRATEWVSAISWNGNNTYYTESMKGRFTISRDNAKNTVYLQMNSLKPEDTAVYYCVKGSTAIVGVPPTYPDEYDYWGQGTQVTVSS | 11.7 nM |

Switching to the query record.
Q: Item under review: IL6R65 (VHH) VHH: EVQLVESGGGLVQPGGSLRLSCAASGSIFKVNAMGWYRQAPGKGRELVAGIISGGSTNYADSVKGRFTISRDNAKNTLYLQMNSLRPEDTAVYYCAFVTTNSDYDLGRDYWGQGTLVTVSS . Reported EC50?
Result: 4.91 nM
